Data provenance: ChEMBL document CHEMBL1151742

Target System: Galanin receptor type 1 (Homo sapiens, UniProt P47211)
Sequence (P47211 whole entry): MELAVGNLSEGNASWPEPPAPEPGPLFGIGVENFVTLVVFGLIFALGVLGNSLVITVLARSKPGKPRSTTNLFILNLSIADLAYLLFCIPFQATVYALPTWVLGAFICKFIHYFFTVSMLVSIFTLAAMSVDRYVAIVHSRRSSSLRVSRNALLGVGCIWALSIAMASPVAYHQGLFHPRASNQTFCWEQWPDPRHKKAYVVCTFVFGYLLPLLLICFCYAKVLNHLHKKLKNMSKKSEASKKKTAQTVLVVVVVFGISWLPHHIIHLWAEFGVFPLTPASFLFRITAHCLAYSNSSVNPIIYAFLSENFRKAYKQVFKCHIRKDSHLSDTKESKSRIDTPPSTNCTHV
Assay: Displacement of europium-labeled galanin from human GalR1 expressed in HEK293 EBNA cells
Type: cell-based
Square brackets hold non-standard residues; d marks the D form. Peptide text beside a SMILES is read from it. * marks the point of attachment. Palmitoyl = CCCCCCCCCCCCCCCC(=O)*; Sar = CNCC(=O)O
Readout: Ki (nM)
Please respond with the number in nM and leave the unit unwritten.

As a guide, the following entries are already answered.
# Compound, Ki [nM]
rows = [
    ("CCCCCCCCCCCCCCCC(=O)NCCCC[C@H](NC(=O)[C@H](CCCCN)NC(=O)[C@H](CCCCN)NC(=O)[C@H](CCCCN)NC(=O)[C@H](CCCCN)NC(=O)[C@H](CC(C)C)NC(=O)[C@H](CC(C)C)NC(=O)[C@H](Cc1ccc(O)cc1)NC(=O)CNC(=O)[C@H](C)NC(=O)[C@H](CO)NC(=O)[C@H](CC(N)=O)NC(=O)[C@H](CC(C)C)NC(=O)[C@@H](NC(=O)[C@H](Cc1c[nH]c2ccccc12)NC(=O)CNC)[C@@H](C)O)C(=O)N[C@@H](CCCCN)C(N)=O (H-[Sar]WTLNSAGYLLKKKKK(Palmitoyl)K-NH2)", 41.5),
    ("CCCCCCCCCCCCCCCC(=O)NCCCC[C@H](NC(=O)[C@@H](CCCCN)NC(=O)[C@@H](CCCCN)NC(=O)[C@@H]1CCCN1C(=O)CNC(=O)[C@H](CC(C)C)NC(=O)[C@H](CC(C)C)NC(=O)[C@H](Cc1ccc(O)cc1)NC(=O)CNC(=O)[C@H](C)NC(=O)[C@H](CO)NC(=O)[C@H](CC(N)=O)NC(=O)[C@H](CC(C)C)NC(=O)[C@@H](NC(=O)[C@H](Cc1c[nH]c2ccccc12)NC(=O)CNC)[C@@H](C)O)C(=O)N[C@H](CCCCN)C(N)=O", 0.9),
    ("CCCCCCCCCCCCCCCC(=O)NCCCC[C@H](NC(=O)[C@@H]1CCCN1C(=O)CNC(=O)[C@H](CC(C)C)NC(=O)[C@H](CC(C)C)NC(=O)[C@H](Cc1ccc(O)cc1)NC(=O)CNC(=O)[C@H](C)NC(=O)[C@H](CO)NC(=O)[C@H](CC(N)=O)NC(=O)[C@H](CC(C)C)NC(=O)[C@@H](NC(=O)[C@H](Cc1c[nH]c2ccccc12)NC(=O)CNC)[C@@H](C)O)C(=O)N[C@@H](CCCCN)C(=O)N[C@@H](CCCCN)C(=O)N[C@@H](CCCCN)C(N)=O", 25.5),
]

Below: the item to evaluate.
Q: Provide the documented Ki with Galanin receptor type 1 (Homo sapiens, UniProt P47211) as the system for CCCCCCCCCCCCCCCC(=O)NCCCC[C@H](NC(=O)[C@H](CCCCN)NC(=O)[C@H](CCCCN)NC(=O)[C@@H]1CCCN1C(=O)CNC(=O)[C@H](CC(C)C)NC(=O)[C@H](CC(C)C)NC(=O)[C@H](Cc1ccc(O)cc1)NC(=O)CNC(=O)[C@H](C)NC(=O)[C@H](CO)NC(=O)[C@H](CC(N)=O)NC(=O)[C@H](CC(C)C)NC(=O)[C@@H](NC(=O)[C@@H](N)Cc1c[nH]c2ccccc12)[C@@H](C)O)C(=O)N[C@@H](CCCCN)C(N)=O (H-WTLNSAGYLLGPKKK(Palmitoyl)K-NH2)
A: 387
